System: CYP3A4
assay.conditions: upcyte Donor 10-03; relative to positive control rifampicin, equation 2
Classify by measured CYP3A4 % Rif: Condition met if it is equal to or exceeds 10%, Condition not met if it is smaller.

QUERY: Entry NC(=O)N1c2ccccc2C=Cc2ccccc21 [Carbamazepine, carbamazepine] : is its CYP3A4 % Rif no less than 10%?
RESULT: Condition met

QUERY: Hi, just wondering whether `O=C1NC(=O)C(c2ccccc2)(c2ccccc2)N1` shows CYP3A4 % Rif of 10% or higher.
RESULT: Condition met

QUERY: Assess whether reported CYP3A4 % Rif for COc1ccc2[nH]c([S+]([O-])Cc3ncc(C)c(OC)c3C)nc2c1 (centres unmarked) sits at 10% or higher.
RESULT: Condition not met

Continuing:
QUERY: Identify whether the reported CYP3A4 % Rif of the following molecule is 10% or greater: `CCC1(c2ccccc2)C(=O)NC(=O)NC1=O`
RESULT: Condition met

QUERY: Is reported CYP3A4 % Rif greater than or equal to 10% here: Cc1c(C)c2c(c(C)c1O)CCC(C)(COc1ccc(CC3SC(=O)NC3=O)cc1)O2 (centres unmarked)
RESULT: Condition met

QUERY: Is CYP3A4 % Rif at least 10%? Consider CCc1ccc(CCOc2ccc(CC3SC(=O)NC3=O)cc2)nc1 (centres unmarked)
RESULT: Condition met

====

System: CYP2B6
assay.conditions: upcyte Donor 653-03; mean from two experiments
Listed compounds paired with reported CYP2B6 Indmax
Enter your answer as a number in fold; do not include the unit.

In the examples that follow, each entry is paired with its recorded CYP2B6 Indmax.
QUERY: May I ask what CYP2B6 Indmax has been recorded for `CO[C@H]1/C=C/O[C@@]2(C)Oc3c(C)c(O)c4c(O)c(c(/C=N/N5CCN(C)CC5)c(O)c4c3C2=O)NC(=O)/C(C)=C\C=C\[C@H](C)[C@H](O)[C@@H](C)[C@@H](O)[C@@H](C)[C@H](OC(C)=O)[C@@H]1C` ?
RESULT: 1.6

QUERY: Recorded CYP2B6 Indmax of Cc1c(C)c2c(c(C)c1O)CCC(C)(COc1ccc(CC3SC(=O)NC3=O)cc1)O2 (stereo not drawn) , please.
RESULT: 2.3

QUERY: Name the reported CYP2B6 Indmax value associated with the compound CCc1ccc(CCOc2ccc(CC3SC(=O)NC3=O)cc2)nc1 (stereo not drawn)
RESULT: 2.1

***
QUERY: // returns reported CYP2B6 Indmax for input NC(=O)N1c2ccccc2C=Cc2ccccc21 [Carbamazepine, carbamazepine]
RESULT: 1.4

====

target.under.test: UniProt:P11712
Sequence (P11712 whole entry): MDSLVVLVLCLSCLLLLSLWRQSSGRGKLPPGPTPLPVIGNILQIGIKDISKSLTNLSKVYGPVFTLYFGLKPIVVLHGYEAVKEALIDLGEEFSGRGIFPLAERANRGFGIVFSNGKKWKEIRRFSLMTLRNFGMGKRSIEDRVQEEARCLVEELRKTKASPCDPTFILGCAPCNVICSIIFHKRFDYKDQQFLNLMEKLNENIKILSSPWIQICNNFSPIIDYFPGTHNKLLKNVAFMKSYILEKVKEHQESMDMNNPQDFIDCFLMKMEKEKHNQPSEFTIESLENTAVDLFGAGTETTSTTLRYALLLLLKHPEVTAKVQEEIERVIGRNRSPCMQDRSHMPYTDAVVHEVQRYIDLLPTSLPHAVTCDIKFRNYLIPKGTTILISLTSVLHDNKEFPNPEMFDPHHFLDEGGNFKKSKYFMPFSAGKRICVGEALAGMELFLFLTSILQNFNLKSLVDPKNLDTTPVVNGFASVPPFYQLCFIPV
method.description: CYP2C9 inhibition in upcyte hepatocytes over 24 h
Assay type: in vitro ADME
assay.conditions: probe tolbutamide (5 μmol/L), percentage inhibition, CYP2C9, OH-Tolb, 1 mmol/L ABT, Donor 422A-03, 24 h, Lab 2
metric.name: inhibition at 24 h, 1 mmol/L (%)
Write down the numeric answer in % and omit the unit.

QUERY: # returns recorded inhibition at 24 h, 1 mmol/L (system: UniProt:P11712) for `Nn1nnc2ccccc21`
RESULT: 100

====

Tested on: CYP2B6
assay.conditions: upcyte Donor 10-03; relative to positive control phenobarbital, equation 2
metric.name: CYP2B6 % PB (%)
Kindly answer with a numeric value in %, unit omitted.

QUERY: Bench note: what CYP2B6 % PB did CCc1ccc(CCOc2ccc(CC3SC(=O)NC3=O)cc2)nc1 (stereo not shown) [Pioglitazone, pioglitazone] show?
RESULT: 55

QUERY: Can you share its CYP2B6 % PB? I mean this compound: O=C1NC(=O)C(c2ccccc2)(c2ccccc2)N1 [Phenytoin, phenytoin]
RESULT: 88

QUERY: Can you share its CYP2B6 % PB? I mean this compound: CCC1(c2ccccc2)C(=O)NC(=O)NC1=O [Phenobarbital, phenobarbital]
RESULT: 100

====

System: CYP3A4
assay.conditions: upcyte Donor 653-03; mean of two experiments
Some compounds, each annotated with its measured CYP3A4 RIS.
Would you mind answering with just the numeric figure?

Answered cases to consult:
QUERY: // query CYP3A4 RIS value for entry NC(=O)N1c2ccccc2C=Cc2ccccc21 [Carbamazepine, carbamazepine]
RESULT: 4.138

QUERY: CYP3A4 RIS lookup needed for CCc1ccc(CCOc2ccc(CC3SC(=O)NC3=O)cc2)nc1 (stereo not shown) [Pioglitazone, pioglitazone] , thanks.
RESULT: 0.0066

Further cases:
QUERY: What value of measured CYP3A4 RIS is listed for O=C1NC(=O)C(c2ccccc2)(c2ccccc2)N1 [Phenytoin, phenytoin] ?
RESULT: 4.341

QUERY: Data request, read-out CYP3A4 RIS, for Cc1c(C)c2c(c(C)c1O)CCC(C)(COc1ccc(CC3SC(=O)NC3=O)cc1)O2 (stereo not shown) [Troglitazone, troglitazone]
RESULT: 0.466

QUERY: Report CYP3A4 RIS for CCC1(c2ccccc2)C(=O)NC(=O)NC1=O [Phenobarbital, phenobarbital] please.
RESULT: 2.198

====

System: CYP3A4
assay.conditions: upcyte Donor 10-03; mean from two experiments
Returns Satisfied if the recorded CYP3A4 Indmax is greater than or equal to 5 fold, and Not satisfied otherwise.

Take a look at these entries with their results.
QUERY: Is the recorded value of CYP3A4 Indmax equal to or greater than 5 fold for this compound? O=C1NC(=O)C(c2ccccc2)(c2ccccc2)N1 [Phenytoin, phenytoin]
RESULT: Satisfied

QUERY: Quick check: does COc1ccc2[nH]c([S+]([O-])Cc3ncc(C)c(OC)c3C)nc2c1 (centres unmarked) [Omeprazole, omeprazole] have CYP3A4 Indmax greater than or equal to 5 fold?
RESULT: Not satisfied

QUERY: API: above_or_equal(metric=CYP3A4 Indmax, cutoff=5 fold) for item CCc1ccc(CCOc2ccc(CC3SC(=O)NC3=O)cc2)nc1 (centres unmarked) [Pioglitazone, pioglitazone]
RESULT: Not satisfied

QUERY: For this compound, is measured CYP3A4 Indmax 5 fold or higher? Cc1c(C)c2c(c(C)c1O)CCC(C)(COc1ccc(CC3SC(=O)NC3=O)cc1)O2 (centres unmarked) [Troglitazone, troglitazone]
RESULT: Not satisfied

QUERY: CYP3A4 Indmax >= 5 fold for CCC1(c2ccccc2)C(=O)NC(=O)NC1=O [Phenobarbital, phenobarbital] ?
RESULT: Satisfied

Now consider the entry below.
QUERY: Evaluate NC(=O)N1c2ccccc2C=Cc2ccccc21 [Carbamazepine, carbamazepine] : CYP3A4 Indmax at minimum 5 fold?
RESULT: Not satisfied

====

target.under.test: CYP2B6 (Homo sapiens)
Sequence (P20813 whole entry): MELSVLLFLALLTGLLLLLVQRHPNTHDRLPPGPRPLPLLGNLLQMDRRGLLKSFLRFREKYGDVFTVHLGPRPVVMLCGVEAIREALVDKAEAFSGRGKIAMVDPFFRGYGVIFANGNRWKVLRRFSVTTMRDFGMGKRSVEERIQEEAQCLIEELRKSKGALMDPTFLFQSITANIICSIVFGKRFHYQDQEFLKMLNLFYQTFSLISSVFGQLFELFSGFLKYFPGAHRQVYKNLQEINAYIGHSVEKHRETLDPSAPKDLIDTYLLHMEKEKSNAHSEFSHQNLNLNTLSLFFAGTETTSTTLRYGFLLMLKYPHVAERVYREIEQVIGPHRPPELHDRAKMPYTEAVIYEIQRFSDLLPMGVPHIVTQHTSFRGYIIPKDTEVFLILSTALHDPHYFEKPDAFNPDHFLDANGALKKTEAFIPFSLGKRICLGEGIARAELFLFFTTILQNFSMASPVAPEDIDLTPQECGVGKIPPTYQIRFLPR
method.description: in vitro
assay.conditions: hepatocytes, percentage inhibition, CYP2B6, OH-Bup, 1 mmol/L ABT, Donor 653-03, 0–6 h, Lab 2
metric.name: inhibition at 1 mmol/L

QUERY: Need inhibition at 1 mmol/L, item `Nn1nnc2ccccc21`
RESULT: 94%

====

System: CYP2B6
assay.conditions: upcyte Donor 151-03; mean from two experiments
metric.name: CYP2B6 Indmax

Examples with answers:
QUERY: Request the reported CYP2B6 Indmax associated with `C[C@@H]1C[C@H]2[C@@H]3CCC4=CC(=O)C=C[C@]4(C)[C@@]3(F)[C@@H](O)C[C@]2(C)[C@@]1(O)C(=O)CO`
RESULT: No induction

QUERY: Requested read-out: CYP2B6 Indmax. Entry: `CCC1(c2ccccc2)C(=O)NC(=O)NC1=O`
RESULT: 2.9 fold

QUERY: I would be grateful if you could share the reported CYP2B6 Indmax for Cc1c(C)c2c(c(C)c1O)CCC(C)(COc1ccc(CC3SC(=O)NC3=O)cc1)O2 (stereo not drawn) .
RESULT: 2.1 fold

QUERY: Please look up its CYP2B6 Indmax: COc1ccc2[nH]c([S+]([O-])Cc3ncc(C)c(OC)c3C)nc2c1 (stereo not drawn)
RESULT: No induction

QUERY: May I ask what CYP2B6 Indmax has been recorded for `CO[C@H]1/C=C/O[C@@]2(C)Oc3c(C)c(O)c4c(O)c(c(/C=N/N5CCN(C)CC5)c(O)c4c3C2=O)NC(=O)/C(C)=C\C=C\[C@H](C)[C@H](O)[C@@H](C)[C@@H](O)[C@@H](C)[C@H](OC(C)=O)[C@@H]1C` ?
RESULT: 1.3 fold

Others:
QUERY: Given the compound NC(=O)N1c2ccccc2C=Cc2ccccc21 [Carbamazepine, carbamazepine] , what is its reported CYP2B6 Indmax?
RESULT: 2.3 fold

====

Reported CYP2B6 % PB values for a set of compounds
Test system: CYP2B6
assay.conditions: upcyte Donor 653-03; relative to positive control phenobarbital, equation 2
Response body: numeric value in %, unit text excluded.

QUERY: Fill blank: measured CYP2B6 % PB of the compound CCc1ccc(CCOc2ccc(CC3SC(=O)NC3=O)cc2)nc1 (stereo not drawn) [Pioglitazone, pioglitazone] is ____.
RESULT: 54

Further cases:
QUERY: Item O=C1NC(=O)C(c2ccccc2)(c2ccccc2)N1 [Phenytoin, phenytoin] has what recorded CYP2B6 % PB?
RESULT: 85

QUERY: Data request, read-out CYP2B6 % PB, for NC(=O)N1c2ccccc2C=Cc2ccccc21 [Carbamazepine, carbamazepine]
RESULT: 17
